System: Alternaria solani
Test: Alternaria test (tomato) / protective
Format: in vivo
Conditions: 500 ppm active compound, protective spray, evaluated 7 days after inoculation
EXPERIMENTAL READOUT: efficacy (%)
The figure you give is taken to be in %; do not add the unit.

COMPOUND	EXPERIMENTAL READOUT	TEST VALUE
CC(C)Cn1cc(-c2ccncc2)c(-c2ccc(Br)s2)n1	efficacy	94
CCC(C)n1cc(-c2ccnc(C#N)c2)c(-c2ccc(Cl)s2)n1 (stereo not drawn)	efficacy	90

## Task # get_value(readout='efficacy', item= "CC(C)CC(=O)Nc1cc(-c2cn(C)nc2-c2ccc(Cl)s2)ccn1" )
## Result 95

## Task Which efficacy is listed for CCC(C)C(=O)Nc1cc(-c2cn(C(C)CC)nc2-c2ccc(Cl)s2)ccn1 (stereo not drawn) ?
## Result 70

## Task efficacy lookup needed for "CCC(=O)Nc1cc(-c2c(-c3ccc(Cl)s3)nn(CC)c2C)ccn1" , thanks.
## Result 95

## Task Would you kindly share the measured efficacy for "Cn1cc(-c2ccnc(NC(=O)CC3CC3)c2)c(-c2ccc(Cl)s2)n1" ?
## Result 90

## Task What measured efficacy goes with "CC(C)n1cc(-c2ccnc(NC(=O)c3ccsc3)c2)c(-c2ccc(Cl)s2)n1" ?
## Result 80

## Task State the recorded efficacy for this entry: "CCn1cc(-c2ccncc2)c(-c2cc3ccsc3s2)n1"
## Result 94

## Task Which efficacy value is on record for "CC(C)n1cc(-c2ccnc(NC(=O)[C@H](C)O)c2)c(-c2ccc(Cl)s2)n1" ?
## Result 90

====

Conditions: pH 2.7
Marks after values point to notes of the source that are not given here.
Each record here notes measured log p.

MOLECULE	EXPERIMENTAL READOUT	TEST VALUE
Fc1ccc(-c2nn(Cc3ccc(Cl)s3)cc2-c2ccncc2)s1	log p	2.34^[b]
CCOCCn1cc(-c2ccncc2)c(-c2ccc(Br)s2)n1	log p	1.75^[b]
CCC(C)n1cc(-c2ccnc(NC(=O)C3CC3)c2)c(-c2ccc(Cl)s2)n1 (stereo not drawn)	log p	3.35^[b]
FCCn1cc(-c2ccncc2)c(-c2ccc(Cl)s2)n1	log p	1.39^[b]

## Task Looking for the measured log p of CCC(C)n1nc(-c2ccc(Cl)s2)c(-c2ccncc2)c1SC (stereo not drawn) , can you help?
## Result 3.35^[b]

## Task Request the reported log p associated with "CC(C)n1cc(-c2ccncc2)c(-c2ccc(Br)s2)n1"
## Result 1.88^[b]

## Task Fill in the blank: the reported log p of "CC(C)n1cc(-c2ccnc(NC(=O)c3cccs3)c2)c(-c2ccc(Cl)s2)n1" is ____.
## Result 3.96^[b]

## Task I am curious: what log p value has been reported for "Clc1ccsc1-c1nn(C2CCCC2)cc1-c1ccncc1" ?
## Result 1.76^[b]

## Task Entry under review: "CC(C)NC(=O)n1cc(-c2ccncc2)c(-c2ccc(Cl)s2)n1" . Reported log p?
## Result 2.26^[b]

====

compounds and their reported % Inhibition of DON/AcDON at 50 μM
Tested on: Fusarium graminearum
Type: cell-based
Details: 50 μM; 7 days at 28° C.
Numeric only. Scale: %

## Task Query (compound): "CC(C)n1cc(-c2ccnc(NC(=O)[C@H](C)O)c2)c(-c2ccc(Cl)s2)n1" ; field requested: % Inhibition of DON/AcDON at 50 μM
## Result 98

## Task Given the entry "CC(C)n1cc(-c2ccncc2)c(-c2ccc(F)s2)n1" , report its measured % Inhibition of DON/AcDON at 50 μM.
## Result 100

## Task I'd like to know its % Inhibition of DON/AcDON at 50 μM. The compound in question is CCC(C)n1cc(-c2ccnc(NC(=O)CC(C)C)c2)c(-c2ccc(Cl)s2)n1 (stereo not shown)
## Result 86

## Task Could you share which % Inhibition of DON/AcDON at 50 μM value was measured for "CCC(CC)n1cc(-c2ccncc2)c(-c2ccc(F)s2)n1" ?
## Result 99
